- Tested on: PSN1
- assay_procedure: SRB colorimetric assay of cell growth and viability, PSN1
- Assay type: cell-based
- condition: total cell growth inhibition; 72 hours treatment; SRB
reported_property: TGI PSN1 (Molar)
Kindly provide the numeric value in Molar only, without the unit symbol.

COc1c(C)cc2c(c1O)[C@H]1N[C@@H](C2)[C@H](O)N2[C@H]1[C@@H]1SC[C@]3(NCCc4c3[nH]c3ccccc43)C(=O)OC[C@H]2c2c3c(c(C)c(OC(C)=O)c21)OCO3 [ET-722, Ecteinascidin 722] : 2.16E−09
COc1ccc2[nH]c3c(c2c1)C[C@H](CO)N[C@]31CS[C@@H]2c3c(OC(C)=O)c(C)c4c(c3[C@H](COC1=O)N1[C@@H]2[C@@H]2N[C@@H](Cc3cc(C)c(OC)c(O)c32)[C@@H]1C#N)OCO4 [Compound 10-R] : 1.48E−09

Ask | Missing value: TGI PSN1, PSN1, entry COc1c(C)cc2c(c1O)[C@H]1N[C@@H](C2)[C@H](C#N)N2[C@H]1[C@@H]1SC[C@]3(NCCc4c3oc3ccccc43)C(=O)OC[C@H]2c2c3c(c(C)c(OC(C)=O)c21)OCO3 [Compound 14] . Fill in?
Reply | 1.33E−08

Ask | Now the compound COc1ccc2[nH]c3c(c2c1)C[C@H](CO)N[C@]31CS[C@@H]2c3c(OC(C)=O)c(C)c4c(c3[C@H](COC1=O)N1[C@@H]2[C@@H]2N[C@@H](Cc3cc(C)c(OC)c(O)c32)[C@@H]1O)OCO4 [Compound 11-R]
Reply | 3.62E−09

Ask | Now the compound COc1c(C)cc2c(c1O)[C@H]1N[C@@H](C2)[C@H](O)N2[C@H]1[C@@H]1SC[C@]3(NCCc4c3oc3ccccc43)C(=O)OC[C@H]2c2c3c(c(C)c(OC(C)=O)c21)OCO3 [Compound 15]
Reply | 1.48E−08

Ask | Now the compound COc1ccc2[nH]c3c(c2c1)CCN[C@]31CS[C@@H]2c3c(OC(C)=O)c(C)c4c(c3[C@H](COC1=O)N1[C@@H]2[C@@H]2N[C@@H](Cc3cc(C)c(OC)c(O)c32)[C@@H]1O)OCO4 [Compound 1]
Reply | 1.69E−09

Ask | Now the compound COc1ccc2[nH]c3c(c2c1)CCN[C@]31CS[C@@H]2c3c(OC(C)=O)c(C)c4c(c3[C@H](COC1=O)N1[C@@H]2[C@@H]2N[C@@H](Cc3cc(C)c(OC)c(O)c32)[C@@H]1C#N)OCO4 [Compound 2]
Reply | 3.08E−09

###

Overview of recorded TGI A549 for various molecules
- Tested on: A549
- assay_procedure: SRB colorimetric assay of cell growth and viability, A549
- Type: cell-based
- condition: total cell growth inhibition; 72 hours treatment; SRB
Kindly provide the numeric value in Molar only, without the unit symbol.

COc1c(C)cc2c(c1O)[C@H]1N[C@@H](C2)[C@H](C#N)N2[C@H]1[C@@H]1SC[C@]3(NCCc4c3oc3ccccc43)C(=O)OC[C@H]2c2c3c(c(C)c(OC(C)=O)c21)OCO3 : 1.73E−08
COc1ccc2[nH]c3c(c2c1)CCN[C@]31CS[C@@H]2c3c(OC(C)=O)c(C)c4c(c3[C@H](COC1=O)N1[C@@H]2[C@@H]2N[C@@H](Cc3cc(C)c(OC)c(O)c32)[C@@H]1O)OCO4 : 3.37E−09
COc1c(C)cc2c(c1O)[C@H]1N[C@@H](C2)[C@H](O)N2[C@H]1[C@@H]1SC[C@]3(NCCc4c3[nH]c3ccccc43)C(=O)OC[C@H]2c2c3c(c(C)c(OC(C)=O)c21)OCO3 : 1.35E−09
COc1ccc2[nH]c3c(c2c1)C[C@H](CO)N[C@]31CS[C@@H]2c3c(OC(C)=O)c(C)c4c(c3[C@H](COC1=O)N1[C@@H]2[C@@H]2N[C@@H](Cc3cc(C)c(OC)c(O)c32)[C@@H]1C#N)OCO4 : 1.20E−08
COc1c(C)cc2c(c1O)[C@H]1N[C@@H](C2)[C@H](O)N2[C@H]1[C@@H]1SC[C@]3(NCCc4c3oc3ccccc43)C(=O)OC[C@H]2c2c3c(c(C)c(OC(C)=O)c21)OCO3 : 2.56E−08
COc1ccc2[nH]c3c(c2c1)CCN[C@]31CS[C@@H]2c3c(OC(C)=O)c(C)c4c(c3[C@H](COC1=O)N1[C@@H]2[C@@H]2N[C@@H](Cc3cc(C)c(OC)c(O)c32)[C@@H]1C#N)OCO4 : 1.28E−08

# input for lookup
Ask | Could you tell me which TGI A549 is on file for COc1ccc2[nH]c3c(c2c1)C[C@H](CO)N[C@]31CS[C@@H]2c3c(OC(C)=O)c(C)c4c(c3[C@H](COC1=O)N1[C@@H]2[C@@H]2N[C@@H](Cc3cc(C)c(OC)c(O)c32)[C@@H]1O)OCO4 ?
Reply | 4.50E−08

###

Overview of recorded TGI HT29 for various molecules
- System: HT29
- assay_procedure: SRB colorimetric assay of cell growth and viability, HT29
- Type: cell-based
- condition: total cell growth inhibition; 72 hours treatment; SRB
Kindly provide the numeric value in Molar only, without the unit symbol.

COc1c(C)cc2c(c1O)[C@H]1N[C@@H](C2)[C@H](O)N2[C@H]1[C@@H]1SC[C@]3(NCCc4c3[nH]c3ccccc43)C(=O)OC[C@H]2c2c3c(c(C)c(OC(C)=O)c21)OCO3 : 1.48E−09
COc1c(C)cc2c(c1O)[C@H]1N[C@@H](C2)[C@H](C#N)N2[C@H]1[C@@H]1SC[C@]3(NCCc4c3oc3ccccc43)C(=O)OC[C@H]2c2c3c(c(C)c(OC(C)=O)c21)OCO3 : 9.19E−09
COc1ccc2[nH]c3c(c2c1)CCN[C@]31CS[C@@H]2c3c(OC(C)=O)c(C)c4c(c3[C@H](COC1=O)N1[C@@H]2[C@@H]2N[C@@H](Cc3cc(C)c(OC)c(O)c32)[C@@H]1C#N)OCO4 : 5.64E−09
COc1ccc2[nH]c3c(c2c1)CCN[C@]31CS[C@@H]2c3c(OC(C)=O)c(C)c4c(c3[C@H](COC1=O)N1[C@@H]2[C@@H]2N[C@@H](Cc3cc(C)c(OC)c(O)c32)[C@@H]1O)OCO4 : 1.43E−09
COc1ccc2[nH]c3c(c2c1)C[C@H](CO)N[C@]31CS[C@@H]2c3c(OC(C)=O)c(C)c4c(c3[C@H](COC1=O)N1[C@@H]2[C@@H]2N[C@@H](Cc3cc(C)c(OC)c(O)c32)[C@@H]1C#N)OCO4 : 1.61E−09

Ask | Could you tell me which TGI HT29 is on file for COc1ccc2[nH]c3c(c2c1)C[C@H](CO)N[C@]31CS[C@@H]2c3c(OC(C)=O)c(C)c4c(c3[C@H](COC1=O)N1[C@@H]2[C@@H]2N[C@@H](Cc3cc(C)c(OC)c(O)c32)[C@@H]1O)OCO4 ?
Reply | 3.62E−09

Ask | Now the molecule COc1c(C)cc2c(c1O)[C@H]1N[C@@H](C2)[C@H](O)N2[C@H]1[C@@H]1SC[C@]3(NCCc4c3oc3ccccc43)C(=O)OC[C@H]2c2c3c(c(C)c(OC(C)=O)c21)OCO3
Reply | 9.57E−09

###

- System: HT29
- assay_procedure: SRB colorimetric assay of cell growth and viability, HT29
- Type: cell-based
- condition: Homo sapiens, HT-29, 72 h, read-out: LC50 HT29
- Excerpt: Using the mean±SD of triplicate cultures, a dose-response curve was automatically generated using nonlinear regression analysis.
Overview of recorded CC50 for various molecules

Example cases with answers are listed next.
COc1c(C)cc2c(c1O)[C@H]1N[C@@H](C2)[C@H](O)N2[C@H]1[C@@H]1SC[C@]3(NCCc4c3oc3ccccc43)C(=O)OC[C@H]2c2c3c(c(C)c(OC(C)=O)c21)OCO3 [Compound 15] : > 135 nM
COc1ccc2[nH]c3c(c2c1)C[C@H](CO)N[C@]31CS[C@@H]2c3c(OC(C)=O)c(C)c4c(c3[C@H](COC1=O)N1[C@@H]2[C@@H]2N[C@@H](Cc3cc(C)c(OC)c(O)c32)[C@@H]1C#N)OCO4 [Compound 10-R] : > 123 nM
COc1ccc2[nH]c3c(c2c1)C[C@H](CO)N[C@]31CS[C@@H]2c3c(OC(C)=O)c(C)c4c(c3[C@H](COC1=O)N1[C@@H]2[C@@H]2N[C@@H](Cc3cc(C)c(OC)c(O)c32)[C@@H]1O)OCO4 [Compound 11-R] : > 125 nM
COc1ccc2[nH]c3c(c2c1)CCN[C@]31CS[C@@H]2c3c(OC(C)=O)c(C)c4c(c3[C@H](COC1=O)N1[C@@H]2[C@@H]2N[C@@H](Cc3cc(C)c(OC)c(O)c32)[C@@H]1C#N)OCO4 [Compound 2] : ≥ 1280 nM
COc1ccc2[nH]c3c(c2c1)CCN[C@]31CS[C@@H]2c3c(OC(C)=O)c(C)c4c(c3[C@H](COC1=O)N1[C@@H]2[C@@H]2N[C@@H](Cc3cc(C)c(OC)c(O)c32)[C@@H]1O)OCO4 [Compound 1] : > 130 nM
COc1c(C)cc2c(c1O)[C@H]1N[C@@H](C2)[C@H](O)N2[C@H]1[C@@H]1SC[C@]3(NCCc4c3[nH]c3ccccc43)C(=O)OC[C@H]2c2c3c(c(C)c(OC(C)=O)c21)OCO3 [ET-722, Ecteinascidin 722] : > 135 nM

# input for lookup
Ask | Could you tell me which CC50 is on file for COc1c(C)cc2c(c1O)[C@H]1N[C@@H](C2)[C@H](C#N)N2[C@H]1[C@@H]1SC[C@]3(NCCc4c3oc3ccccc43)C(=O)OC[C@H]2c2c3c(c(C)c(OC(C)=O)c21)OCO3 [Compound 14] ?
Reply | > 133 nM
